Tested on: PRKACA-PRKAR2A interaction (SmBiT-PRKACA / LgBiT-PRKAR2A), protein kinase A
Parameters: NanoLuc complementation counter-screen in cell extract, PRKACA with PRKAR2A, loss of luminescence, detects NanoLuc interference
Condition description: counter-screen for NanoLuc interference; 0.5 h, 20 µM; inhibitor
Structures can show the parent of a compound that is named as a salt.
Parameter: Inh (PKA). Scope: all listed entries.

{"Molecule": "O=c1cc(-c2ccc(O)cc2)oc2cc(O)cc(O)c12 [UM0133861:02, Apigenin]", "Measurement unit": "%", "Inh (PKA)": 24.67}
{"Molecule": "CC(C)C[C@@H](C(=O)N[C@H](C(=O)OC1CCCC1)c1ccccc1)[C@H](O)C(=O)NO [UM0141805:01, Tosedostat (CHR2797)]", "Measurement unit": "%", "Inh (PKA)": 5.594}
{"Molecule": "COc1cccc2c1C(=O)c1c(O)c3c(c(O)c1C2=O)C[C@@](O)(C(C)=O)C[C@@H]3O[C@H]1C[C@H](N)[C@H](O)[C@H](C)O1 [UM0118677:04, Daunorubicin HCl]", "Measurement unit": "%", "Inh (PKA)": 42.12}
{"Molecule": "C[C@@H]1CC(=O)Nc2cccc(-c3ccc4c(c3)c(-c3cnn(C)c3)nn4C)c2N1 [UM0142803:01, CPI-637]", "Measurement unit": "%", "Inh (PKA)": 3.742}
{"Molecule": "Cn1cnc(N)c2ncnc1-2 [UM0142011:01, 3-Methyladenine]", "Measurement unit": "%", "Inh (PKA)": 0.4537}
{"Molecule": "COc1cc2c(cc1OC)CC(=O)N(CCCN(C)C[C@H]1Cc3cc(OC)c(OC)cc31)CC2 [UM0142218:01, Ivabradine HCl]", "Measurement unit": "%", "Inh (PKA)": -0.5336}
{"Molecule": "O=C(O)c1cc(O)c(O)c(O)c1 [UM0120666:03, Gallic acid]", "Measurement unit": "%", "Inh (PKA)": -0.4526}
{"Molecule": "O=C(O)C(O)C(O)C(=O)O (stereo not shown) [UM0142810:01, Sodium tartrate]", "Measurement unit": "%", "Inh (PKA)": 0.7692}
{"Molecule": "Cc1ccc(-c2ncc(Cl)cc2-c2ccc(S(C)(=O)=O)cc2)cn1 [UM0141550:01, Etoricoxib]", "Measurement unit": "%", "Inh (PKA)": 2.792}
{"Molecule": "COCCCOc1cc(C[C@@H](C[C@H](N)[C@@H](O)C[C@H](C(=O)NCC(C)(C)C(N)=O)C(C)C)C(C)C)ccc1OC [UM0142448:01, Aliskiren Hemifumarate]", "Measurement unit": "%", "Inh (PKA)": 6.646}
{"Molecule": "CC[C@H](C)[C@H](NC(=O)[C@H]([C@@H](C)CC)N(C)C(C)=O)C(=O)N[C@H](C(=O)N[C@@H](CC(C)C)C(=O)[C@@]1(C)CO1)[C@@H](C)O [UM0141477:01, Epoxomicin]", "Measurement unit": "%", "Inh (PKA)": 1.438}
{"Molecule": "CO[C@H]1C[C@@H]2CC[C@@H](C)[C@@](O)(O2)C(=O)C(=O)N2CCCC[C@H]2C(=O)O[C@H]([C@H](C)C[C@@H]2CC[C@@H](OC(=O)C(C)(CO)CO)[C@H](OC)C2)CC(=O)[C@H](C)/C=C(\\C)[C@@H](O)[C@@H](OC)C(=O)[C@H](C)C[C@H](C)/C=C/C=C/C=C/1C [UM0135484:03, Temsirolimus]", "Measurement unit": "%", "Inh (PKA)": 1.626}
{"Molecule": "CC(C)c1cc(C(C)C)c(CC(=O)NS(=O)(=O)Oc2c(C(C)C)cccc2C(C)C)c(C(C)C)c1 [UM0141778:01, Avasimibe]", "Measurement unit": "%", "Inh (PKA)": 69.24}
